# procedure details: Chemical stability at pH >7 assessed as half life
# Assay type: physicochemical
measure name: half-life

Lookup result for `Cc1nn(C(=O)/C=C/c2ccncc2)c2c1[C@H]1[C@@H](C2)C1(C)C` ; measured half-life: 3 h

---

# experimental target: Sphingosine 1-phosphate receptor 1 (Homo sapiens, UniProt P21453)
# Sequence (P21453 whole entry): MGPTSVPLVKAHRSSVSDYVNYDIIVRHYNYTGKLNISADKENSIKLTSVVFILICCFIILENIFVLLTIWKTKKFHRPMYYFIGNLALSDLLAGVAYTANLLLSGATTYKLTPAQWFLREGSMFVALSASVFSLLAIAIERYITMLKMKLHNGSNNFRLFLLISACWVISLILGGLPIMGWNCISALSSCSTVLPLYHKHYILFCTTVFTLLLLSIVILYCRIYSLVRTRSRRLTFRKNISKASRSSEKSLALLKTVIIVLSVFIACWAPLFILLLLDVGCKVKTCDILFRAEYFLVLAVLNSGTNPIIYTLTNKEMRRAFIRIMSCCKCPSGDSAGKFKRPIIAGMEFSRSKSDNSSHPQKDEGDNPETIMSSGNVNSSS
# procedure details: Agonist activity at human SIP1 receptor expressed in CHO cells by [35S]GTPgammaS binding assay
Exercise: for every item that follows, state its recorded pEC50.
One number for each entry, as −log10 of the molar value.

Could you report pEC50 for every entry in the following list?
1. Cc1nn(C(=O)/C=C/c2ccccc2Cl)c2c1[C@H]1[C@@H](C2)C1(C)C
2. Cc1nn(C(=O)/C=C/c2ccncc2)c2c1[C@H]1[C@@H](C2)C1(C)C
3. Cc1nn(C(=O)/C=C/c2cccc(S(N)(=O)=O)c2)c2c1[C@H]1[C@@H](C2)C1(C)C

Result ::
[7.80, 8.15, 7.96]
